Property: EC50; scope: individual substances
- Target: hGLP-1R (Homo sapiens)
- Sequence (P43220 24-463): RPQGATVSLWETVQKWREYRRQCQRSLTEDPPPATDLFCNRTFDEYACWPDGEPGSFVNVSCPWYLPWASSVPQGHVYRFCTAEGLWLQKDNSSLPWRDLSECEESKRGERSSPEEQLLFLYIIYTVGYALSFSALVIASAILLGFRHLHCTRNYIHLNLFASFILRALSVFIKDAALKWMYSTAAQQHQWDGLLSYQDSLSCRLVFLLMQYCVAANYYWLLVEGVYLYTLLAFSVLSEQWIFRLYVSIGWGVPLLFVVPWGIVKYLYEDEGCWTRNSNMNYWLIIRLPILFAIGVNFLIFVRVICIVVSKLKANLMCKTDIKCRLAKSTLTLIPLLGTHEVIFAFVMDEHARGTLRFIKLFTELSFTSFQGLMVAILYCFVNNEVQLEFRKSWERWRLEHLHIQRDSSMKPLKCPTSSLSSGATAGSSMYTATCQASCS
- Assay summary: Functional cAMP activation in the presence of 0.1% casein (no HSA);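 further: intracellular cAMP rise after 30 min at 37 °C read by HTRF, normalized between buffer only (0%) and maximal control ligand (100%), four-parameter variable-slope fit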
- Format: cell-based
- Test context: in the presence of 0.1% casein (no HSA); geometric mean; read-out: Relative cAMP EC50, hGLP-1R
Starred links: 1 amine or outer side, 2 acyl side, 3 side chain; linkers in the order of their positions; H or OH if unused. Non-standard residues stand in square brackets, D forms with d. Groups on a side chain read outwards from the residue. *: point of attachment. C18 diacid = O=C(O)CCCCCCCCCCCCCCCCC(=O)*; γGlu = O=C(O)[C@H](CCC(=O)[*:2])N[*:1]; αMe4Pal = C[C@](N)(Cc1ccncc1)C(=O)O; αMeY = C[C@](N)(Cc1ccc(O)cc1)C(=O)O; 4Pal = N[C@@H](Cc1ccncc1)C(=O)O; αMeL = CC(C)C[C@](C)(N)C(=O)O; Orn = NCCC[C@H](N)C(=O)O; Dab = NCC[C@H](N)C(=O)O; AEEA = NCCOCCOCC(=O)O; Aib = CC(C)(N)C(=O)O
Answer format: numeric, nM implied, no suffix.

Before answering, review these 3 worked examples.
>  <Substance>
H-Y[Aib]QGTFTSDFS[Orn][αMeL]LD[Orn]K([γGlu-γGlu-C18 diacid])AQ[Aib]AFIE[αMeY]LLEGGPSSGAPPPGGSEE-NH2 [Example 1049]

>  <Readout unit>
nM

>  <EC50>
2.23

$$$$
>  <Substance>
H-Y[Aib]QGTFTSD[4Pal]SK[αMeL]LDKK([AEEA-γGlu-C18 diacid])AQ[Aib]AFIEYLIE[dA]GESSGEPPPSGS-NH2 [Example 284]

>  <Readout unit>
nM

>  <EC50>
1.54

$$$$
>  <Substance>
H-Y[Aib]QGTFTSD[4Pal]S[Orn][αMeL]LDKK([γGlu-γGlu-C18 diacid])AQ[αMe4Pal]AFIEYLIAGGPSSGAPPPSGSE-NH2 [Example 1009]

>  <Readout unit>
nM

>  <EC50>
2.1

$$$$

EC50 lookup needed for H-Y[Aib]QGTFTSDFS[Dab][αMeL]LDKK([AEEA-γGlu-C18 diacid])AQ[Aib]AFIEYLLE[Aib]GPSSGAPPPSGS-NH2 [Example 133] , thanks.
3.6

Next up: H-Y[Aib]QGTFTSD[4Pal]S[Orn][αMeL]LDKK([AEEA-γGlu-C18 diacid])AQ[αMe4Pal]AFIE[αMe4Pal]LIEGGPSSGAPPPSGS-NH2 [Example 949]
3.37

Next up: H-Y[Aib]QGTFTSD[4Pal]S[Orn][αMeL]LDKK([AEEA-γGlu-γGlu-C18 diacid])AQ[αMe4Pal]AFIE[αMe4Pal]LIE[Aib]GPSSGEPPPSGSE-NH2 [Example 988]
9.5

---

- Target: hGIPR (Homo sapiens, UniProt P48546)
- Sequence (P48546 22-466): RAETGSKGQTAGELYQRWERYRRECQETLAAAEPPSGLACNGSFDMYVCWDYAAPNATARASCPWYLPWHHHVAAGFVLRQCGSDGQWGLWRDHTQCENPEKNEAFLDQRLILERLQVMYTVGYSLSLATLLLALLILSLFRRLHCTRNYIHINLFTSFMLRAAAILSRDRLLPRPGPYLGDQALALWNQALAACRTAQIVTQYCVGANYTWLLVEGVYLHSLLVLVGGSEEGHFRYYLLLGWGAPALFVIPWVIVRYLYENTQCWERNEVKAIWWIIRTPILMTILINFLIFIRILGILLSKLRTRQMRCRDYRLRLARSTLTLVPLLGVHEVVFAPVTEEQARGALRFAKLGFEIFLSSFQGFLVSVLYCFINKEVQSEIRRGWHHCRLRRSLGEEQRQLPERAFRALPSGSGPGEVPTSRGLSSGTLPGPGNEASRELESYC
- Assay summary: Functional cAMP activity in the presence of 1% HSA
- Format: cell-based
- Test context: read-out: cAMP Rel EC50, hGIPR
Starred links: 1 amine or outer side, 2 acyl side, 3 side chain; linkers in the order of their positions; H or OH if unused. Non-standard residues stand in square brackets, D forms with d. Groups on a side chain read outwards from the residue. No end group written: not given here. *: point of attachment. C18 diacid = O=C(O)CCCCCCCCCCCCCCCCC(=O)*; αMePhe(2-F) = C[C@](N)(Cc1ccccc1F)C(=O)O; γGlu = O=C(O)[C@H](CCC(=O)[*:2])N[*:1]; αMe4Pal = C[C@](N)(Cc1ccncc1)C(=O)O; αMeY = C[C@](N)(Cc1ccc(O)cc1)C(=O)O; 4Pal = N[C@@H](Cc1ccncc1)C(=O)O; αMeL = CC(C)C[C@](C)(N)C(=O)O; αMeS = C[C@](N)(CO)C(=O)O; Orn = NCCC[C@H](N)C(=O)O; AEEA = NCCOCCOCC(=O)O; Aib = CC(C)(N)C(=O)O
Property: log10 of EC50; scope: individual substances
In our notation, the value equals log10 of EC50 in nM.

Before answering, review these 4 worked examples.
>  <Substance>
H-Y[Aib]QGTFTSDFS[Orn][αMeL]LDKK([AEEA-γGlu-C18 diacid])AQ[Aib]AFIEYLLAGGPSSGAPPPSGE[AEEA]-NH2 [Example 91]

>  <Target>
hGIPR (Homo sapiens, UniProt P48546)

>  <Quantity kind>
log10 of EC50

>  <Quantitative readout>
1.38

$$$$
>  <Substance>
H-Y[Aib]QGTFTSD[4Pal]S[Orn][αMeL]LD[Orn]K([γGlu-γGlu-C18 diacid])AQ[αMe4Pal]EFIE[αMeY]LLEGGPSSGAPPPSGSEE-NH2 [Example 976]

>  <Target>
hGIPR (Homo sapiens, UniProt P48546)

>  <Quantity kind>
log10 of EC50

>  <Quantitative readout>
1.92

$$$$
>  <Substance>
H-Y[Aib]QGT[αMePhe(2-F)]TSD[4Pal][αMeS]I[αMeL]LD[Orn]K([AEEA-γGlu-C18 diacid])AA[Aib]EFI[dE][αMeY]LVEGGPSSGAPPPSGS-NH2 [Example 693]

>  <Target>
hGIPR (Homo sapiens, UniProt P48546)

>  <Quantity kind>
log10 of EC50

>  <Quantitative readout>
0.04

$$$$
>  <Substance>
H-Y[Aib]QGTFTSD[4Pal]SK[αMeL]LDKK([γGlu-γGlu-C18 diacid])AQ[Aib]AFIEYLIE[Aib]GPSSGAPPPSGSE-NH2 [Example 904]

>  <Target>
hGIPR (Homo sapiens, UniProt P48546)

>  <Quantity kind>
log10 of EC50

>  <Quantitative readout>
1.18

$$$$

GET /values?readout=log10 of EC50&system=hGIPR (Homo sapiens, UniProt P48546)&item= Y[Aib]QGTFTSD[4Pal]SQ[αMeL]LDKK([Glu-Glu-γGlu-C18 diacid])AQ[αMe4Pal]AFIEYLIE[Aib]GPSSGAPPPSGS-NH2 [Example 895]
1.53

Next up: H-Y[Aib]QGTFTSDFS[Orn][αMeL]LDKK([γGlu-AEEA-γGlu-C18 diacid])AQ[Aib]AFIEYLLE[Aib]GHSSGAPPPSGS-NH2 [Example 245]
1.02
